- experimental_target: Cytochrome P450 2D6 (Homo sapiens)
- assay_summary: Cytochrome P450 Family 2 Subfamily D Member 6 (CYP2D6) small molecule antagonists: luciferase reporter qHTS assay (AID 1671196); further: nearly all actives have a fitted effect of over 50% in size
- details: P450-Glo CYP2D6 enzyme assay, luciferin luminescence, 1 h; series mostly up to 115 µM
Inconclusive results are not listed. Active and inactive are the calls of the source. The call rests on the fitted dose curve; in most records, active means well fitted inhibition curve with a large enough effect in the repeat runs; inconclusive means weak or mixed curves; inactive means no such curve, though single readings can be large or run the other way.
Please reply with one of these outcomes: YES for active, NO for inactive

Lab log entry: O=C1C2CC=CCC2C(=O)N1SC(Cl)(Cl)Cl (stereo not given) — outcome as called in the assay?
YES

Same read-out for CNC(=O)NC(O)C(Cl)(Cl)Cl (stereo not given) ?
NO

What about CN(C)C(=O)Oc1cc(OC(=O)N(C)C)cc(C(O)CNC(C)(C)C)c1 (stereo not given) ?
YES

And for CCOP(=S)(OCC)Oc1ccc(Cl)cc1Cl ?
NO

Here is the next item to consider.
What classification did CCNP(=S)(OC)O/C(C)=C/C(=O)OC(C)C (stereo not given) end up with in this test?
YES

---

- experimental_target: Peroxisome proliferator-activated receptor delta (Homo sapiens)
- assay_summary: qHTS assay to identify small molecule antagonists of the peroxisome proliferator-activated receptor delta (PPARd) signaling pathway (AID 743215);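 further: cells stimulated with agonist L165041 at 300 nM final during compound exposure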
- details: HEK293H PPARd-UAS-bla, beta-lactamase FRET ratio, antagonist, 17 h; series mostly up to 62 µM
Inconclusive results are not listed. Active and inactive are the calls of the source. Calls come from the whole dose curve; as a rule, active = well fitted inhibition curve with a large enough effect in the signal ratio in the repeat runs (not every such curve was filed as active); inconclusive = weak or mixed curves, or effect the other way; inactive = no such curve, though single readings can be large or run the other way; the % refers to the signal ratio.
measurement_kind: outcome

Solved entries:
Form field: reported outcome of COC(=O)c1ccc(CBr)cc1
inactive

What about CCN[C@H](C)Cc1cccc(C(F)(F)F)c1 ?
inactive

And the next one, CCN(CC)C1CCCCC1 ?
inactive

One more molecule: Clc1ccc(C(Cl)(Cl)Cl)cn1
inactive

Follow-up item: Cn1c(N)nc2c3cccnc3ccc21
inactive

Others:
I am curious: what outcome value has been reported for C(COCC1CO1)OCC1CO1 (centres undefined) ?
inactive

What do you get for CN1COCN(Cc2cnc(Cl)s2)/C1=N\[N+](=O)[O-] ?
inactive

Also need CC(=O)CN(CC(C)=O)N=O , thanks.
inactive

Now the same for CCOC(=O)COc1ccc(Cl)cc1Cl
inactive

Another molecule to check: O=S1(=O)OCCO1
inactive

Please give the result for CCOC(=O)C(Cl)Cc1cc(-n2nc(C)n(C(F)F)c2=O)c(F)cc1Cl (centres undefined) too.
inactive

Thanks! And O=C(Cl)C(Cl)(Cl)Cl ?
inactive

Consider next the molecule O=C(O)C(F)(F)C(F)(F)C(F)(F)C(F)(F)C(F)(F)C(F)(F)F in the same way.
inactive

# repeat for C=CCc1cc(OC)c2c(c1)OCO2
inactive

Quick one: CC(C)[C@]12CC(=O)[C@H](C)[C@H]1C2
inactive

Now consider CCC1(c2ccccc2)C(=O)N(COC)C(=O)N(COC)C1=O and answer again.
inactive

What do you have for CCCCS(=O)(=O)Cl ?
inactive

Then O=C(Cl)c1ccccc1 ?
inactive

Could you do the same for CNC(=O)Oc1cc(C)c(N(C)C)c(C)c1 , please?
inactive

And the next one, [O-][Br+2]([O-])O ?
inactive

Then CCC1(CC)C(=O)C=CNC1=O ?
inactive

Another molecule: COC[C@@H](NC(C)=O)C(=O)NCc1ccccc1
inactive

Same question for BrCC1CO1 (centres undefined) please.
inactive

CC[C@@H](CO)NC(=O)[C@@H]1C=C2c3cccc4[nH]cc(c34)C[C@H]2N(C)C1 ?
inactive
